test system: HCT-116; test: NCI tumour cell line growth inhibition, 48 h
Where a name gives a salt, the structure may show the parent alone. The source made the active and inactive calls. Cut-off read from the data, not from the text of the source: active = GI50 up to about 1.1 µM and inactive = higher.
assay.readout: GI50

Known GI50 results, listed for orientation:
1. O=C(COc1ccccc1Cl)N1N=C(c2ccc(Cl)cc2)CC1(O)c1ccccc1 (stereo unspecified)	> 100 µM (inactive)
2. CCOP(=O)(OCC)/C(C#N)=C/c1ccc[nH]1	> 100 µM (inactive)
3. COc1ccc2c(c1)C1Oc3ccccc3CC1CO2 (stereo unspecified)	44.7 µM (inactive)
4. COc1cc2c(cc1OC)C(=O)/C(=C/c1ccccc1)C2	48 µM (inactive)

For the molecule CN[C@@H](C)[C@@H](O)c1ccccc1 [PSEUDOEPHEDRINE HYDROCHLORIDE] , what GI50 is on record?
> 100 µM (inactive)

Requested read-out: GI50. Entry: "C[C@@H]1C[C@@H]2C(=O)N(c3ccccc3)C(=O)[C@@H]2c2[nH]c3ccc(Br)cc3c21"
30.2 µM (inactive)

---

Entries and their GI50 values follow.
system: HCT-116; experiment: NCI tumour cell line growth inhibition, 48 h
Calls of active or inactive are those of the source. Cut-off read from the data, not from the text of the source: active = GI50 up to about 1.1 µM and inactive = higher.

Examples from the recorded data:
1. COc1ccc(/N=c2\ssc(C(=S)Nc3ccc(OC)cc3)c2S)cc1	88.1 µM (inactive)
2. CO[C@]12C[C@@H](CNC(=O)c3cc(Br)c[nH]3)O[C@H]1NC(=O)N2	> 100 µM (inactive)
3. O=C1CC(Nc2ccccc2)c2c(Cl)sc(Cl)c21 (stereo unspecified)	1.19 µM (inactive)
4. COc1ccc2[nH]c3c(c2c1)COc1ccccc1C3=O	> 100 µM (inactive)
5. N=C(N)c1ccc(/N=N/c2c(O)ccc3cc(O)ccc23)cc1	> 100 µM (inactive)

Look up GI50 with HCT-116 for this compound: "[N-]=[N+]=Nc1cc(=O)[nH]c2ccccc12"
> 100 µM (inactive)

Entry "CC(=O)/C=C/c1c[nH]c(=O)[nH]c1=O" , system HCT-116: what GI50 was measured?
128 µM (inactive)

Give HCT-116 GI50 for O=[N+]([O-])C1=Cc2c(O)ccc(O)c2C2c3ccccc3NC12 (stereo unspecified)
9.16 µM (inactive)

Provide the documented GI50 with HCT-116 as the system for "CC1=NN(c2nc(N)nc(CSc3cc(Cl)c(C)cc3S(N)(=O)=O)n2)C(C)(C)C1"
> 10 µM (inactive)

For the record CC(Cc1ccccc1)N(C)Cc1nc(C2CCC([N+](=O)[O-])O2)no1 (stereo unspecified) , what value of GI50 is listed for HCT-116?
7.29 µM (inactive)

Param readout = GI50; param system = HCT-116; param query = "Cc1ncc([N+](=O)[O-])n1CCN=[N+]=[N-]" ; response: value
> 100 µM (inactive)

---

tested on: BT-549; assay: NCI tumour cell line growth inhibition, 48 h
Activity calls are given as the source filed them. Rule as the data show it: active = GI50 up to about 1.1 µM and inactive = higher.
assay.readout: GI50

# input molecule: "O=C1/C(=C/Cc2ccco2)N=C(c2ccccc2)N1c1nc2ccc(Sc3ccccc3)cc2[nH]1" ; wanted: its GI50
20.3 µM (inactive)

---

test system: SF-295; experiment: NCI tumour cell line growth inhibition, 48 h
Activity calls are given as the source filed them. Cut-off read from the data, not from the text of the source: active = GI50 up to about 1.1 µM and inactive = higher.
assay.readout: GI50

1) Nc1ccc(I)cn1	> 100 µM (inactive)
2) CCOC(OC(C)=O)[C@@H]1C=C[C@H](C)N(c2ccc([N+](=O)[O-])cc2)O1 (stereo not given in full)	11.4 µM (inactive)
3) NC(=O)/C(=N\NC(=O)C[n+]1ccccc1)C1NC(=O)NC1=O (stereo not given)	> 100 µM (inactive)
4) O=c1/c(=C/c2c(O)ccc3ccccc23)sc2nc3ccccc3n12	> 100 µM (inactive)
5) CC(C)N1CN(c2ccccc2)C2(CCN(CCCC(=O)c3ccc(F)cc3)CC2)C1=O	10.8 µM (inactive)
6) CC(C)(Br)C(Br)CCC(C)(Br)C(Br)CO (stereo not given)	> 10 µM (inactive)
7) N#CC(C(=O)CCC(=O)Nc1ccc(Cl)c(Cl)c1)c1ccccc1 (stereo not given)	> 100 µM (inactive)
8) Cc1cc(C)c2c(c1)C(=O)/C(=C/c1ccccc1C(=O)O)C2	52.2 µM (inactive)

Find the recorded GI50 belonging to "CN1C/C(=C\C=C\c2ccccc2)C(=O)/C(=C/C=C/c2ccccc2)C1" and report it.
> 100 µM (inactive)

Reported GI50, compound "CN(C)c1ccc(/C=C2\N=C(c3ccc(N)cc3)OC2=O)cc1" : ____
> 100 µM (inactive)

Bench note: what GI50 did "CCCNC(=O)Cn1c2c(c3ccccc31)CCCC2" show?
38.5 µM (inactive)

Which GI50 reading was recorded for the compound "CC(C)(C)c1ccc2c(c1)CNCCNCc1cc(C(C)(C)C)ccc1OCC1(CO2)COc2ccc(C(C)(C)C)cc2CNCCNCc2cc(C(C)(C)C)ccc2OC1" ?
0.968 µM (active)

Param item = "COC(=O)c1ccc2c(c1)S/C(=C/c1ccc3ccc4cccc5ccc1c3c45)S2" ; retrieve measured GI50.
40.8 µM (inactive)
